Listing: FACS MFI of selected binders
- measured-target: T1, human CD24 (human, UniProt P25063 27-59, heavily glycosylated, GPI-anchored (as described in the background))
- T1 construct: whole, on cells; Target of all cell-based FACS assays; also called hCD24; Cluster of differentiation 24
- T1 chain (looked up): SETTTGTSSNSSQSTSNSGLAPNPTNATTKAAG
- procedure-summary: FACS, 5637 cells
measured-metric: FACS MFI

>>> endpoint_value("100F2E3 (antibody, V domains shown, mouse monoclonal antibody) VH: QVQLQQPGAELVRPGSSVKLSCKTSDYTFTSYWMDWVKQRPGQGLEWIGNIYPSDSKTHSNQKFRDKATLTVDKSSSTAYMQLNSLTSEDSAVYYCARRGGYYGYAMDYWGQGTSVTVSS VL: DIVMTQSPSSLSVSAGEKVTMSCKSSQSLLNSGNQDNYLAWYQQKPGQPPKLLIYGASIRESGVPDRFTGSGSGTDFTLTISSVQAEDLAVYYCQNDHSYPYTFGGGTKLEIK")
22100
>>> endpoint_value("81A1F8 (antibody, V domains shown, mouse monoclonal antibody) VH: EVQLQQSGPELVKPGASVKISCKATGYLFTGYYMNWVKQSPEKSLEWIGEINPNTGDTNNNQKFKAKATMTVDRSSSTAYMQLKRLTSEDSAVYYCVRRDYGTSLDYWGQGTTLTVSS VL: DVQITQSPSYLAASPGETITINCRASKSINKYLAWYQEKPGKTNKLLIHSGSTLQSGIPSRFSGSRSGTDFTLTISNLEPEDFAMYYCQQHNEYPITFGAGTKLELK")
22200
>>> endpoint_value("56A7E3 (antibody, V domains shown, mouse monoclonal antibody) VH: EVQLQQSGPELVKPGASVKIPCKASGYTFTAYNMDWVKQSHGMSLEWIGDINPINGGTIYNQNFEGKATLTVDKSSSTAYLELRSLTSEDTAVYYCARRGSYYYGSSHYALDFWGQGTSVSVSS VL: DIQMTQITSSLSASLGDRVTITCRASQDISNYLNWYQQKPDGTVKLLIYYTSRLLSGVPSRFSGSGSGTDYSLTISNLEQEDIATYFCQQDHTLPRTFGGGTKLEIR")
18500

src = patent US20240052052A1
